Reference source for all entries: patent US7091185B2

System: P. aeruginosa ATCC 15442
Assay: HMARQ biocidal kill activity
Assay type: cell-based
Conditions: P. aeruginosa ATCC 15442 (gram−), 15 min
From the text: Biocide efficacy protocols were improved by reducing sample size, organizing the test material into an array format, implementing most probable number (MPN) quantitation and using multi-channel liquid handling equipment. We call the new method “high-throughput microanalysis and rapid quantitation” or “HMARQ.” HMARQ is directly applicable to current industrial efficacy tests such as multi-cycle preservation challenge or time course disinfection tests. […]
Where no end group is shown, it is not given here.
Short version: ppm needed for 3.5 log kill at 15 min at least 60 ppm is Y, less is N.

>  <Substance>
KGK KGK KGK KGK KGK KGK KGK KGK KGK KGK KGK KGK KGK KGK KGK (KGKKGKKGKKGKKGKKGKKGKKGKKGKKGKKGKKGKKGKKGKKGK; Periodic Peptide) [KGK(15)]

>  <Subject Of Test>
P. aeruginosa ATCC 15442

>  <Category>
N

$$$$
>  <Substance>
LK LK LK LK LK LK LK LK LK LK LK LK LK LK LK LK LK LK (LKLKLKLKLKLKLKLKLKLKLKLKLKLKLKLKLKLK; Periodic Peptide) [LK(18)]

>  <Subject Of Test>
P. aeruginosa ATCC 15442

>  <Category>
N

$$$$
>  <Substance>
KGK KGK KGK KGK KGK KGK KGK KGK KGK KGK KGK (KGKKGKKGKKGKKGKKGKKGKKGKKGKKGKKGK; Periodic Peptide) [KGK(11)]

>  <Subject Of Test>
P. aeruginosa ATCC 15442

>  <Category>
N

$$$$
>  <Substance>
AKKFAKKFAKKFAKKFAKKFAKKF [AKKF (6), AKKF AKKF AKKF AKKF AKKF AKKF]

>  <Subject Of Test>
P. aeruginosa ATCC 15442

>  <Category>
Y

$$$$
>  <Substance>
RFARRFARRFARRFARRFARRFARRFARRFAR [RFAR (8), RFAR RFAR RFAR RFAR RFAR RFAR RFAR RFAR]

>  <Subject Of Test>
P. aeruginosa ATCC 15442

>  <Category>
Y

$$$$
>  <Substance>
LK LK LK LK LK LK LK LK LK LK LK LK LK LK LK LK LK LK LK LK LK LK LK LK (LKLKLKLKLKLKLKLKLKLKLKLKLKLKLKLKLKLKLKLKLKLKLKLK; Periodic Peptide) [LK(24)]

>  <Subject Of Test>
P. aeruginosa ATCC 15442

>  <Category>
N

$$$$
>  <Substance>
RFARRFARRFARRFARRFARRFARRFAR [RFAR (7), RFAR RFAR RFAR RFAR RFAR RFAR RFAR]

>  <Subject Of Test>
P. aeruginosa ATCC 15442

>  <Category>
Y

$$$$
>  <Substance>
FKAFKAFKAFKAFKAFKA [FKA (6), FKA FKA FKA FKA FKA FKA]

>  <Subject Of Test>
P. aeruginosa ATCC 15442

>  <Category>
N

$$$$
>  <Substance>
LK LK LK LK LK (LKLKLKLKLK; Periodic Peptide) [LK(5)]

>  <Subject Of Test>
P. aeruginosa ATCC 15442

>  <Category>
Y

$$$$
>  <Substance>
H-KFKKFKKFKKFKKFKKFKKFKKFK-OH [KFK (8), KEK KFK KFK KFK KFK KFK KFK KFK]

>  <Subject Of Test>
P. aeruginosa ATCC 15442

>  <Category>
Y

$$$$
>  <Substance>
LKKLLKKLLKKLLKKLLKKLLKKL [LKKL (6), LKKL LKKL LKKL LKKL LKKL LKKL]

>  <Subject Of Test>
P. aeruginosa ATCC 15442

>  <Category>
Y

$$$$
>  <Substance>
FKAFKAFKAFKAFKAFKAFKA [FKA (7), FKA FKA FKA FKA FKA FKA FKA]

>  <Subject Of Test>
P. aeruginosa ATCC 15442

>  <Category>
Y

$$$$
>  <Substance>
H-KFAKKFAKKFAKKFAKKFAKKFAKKFAKKFAK-OH [KFAK (8), KFAK KFAK KFAK KFAK KFAK KFAK KFAK KFAK]

>  <Subject Of Test>
P. aeruginosa ATCC 15442

>  <Category>
N

$$$$
>  <Substance>
KFKKFKKFKKFKKFKKFK [KFK (6), KFK KFK KFK KFK KFK KFK]

>  <Subject Of Test>
P. aeruginosa ATCC 15442

>  <Category>
Y

$$$$
